TESTED_TARGET: Neuronal acetylcholine receptor subunit alpha-6 (Gallus gallus, UniProt P49581)
Sequence (P49581 whole entry): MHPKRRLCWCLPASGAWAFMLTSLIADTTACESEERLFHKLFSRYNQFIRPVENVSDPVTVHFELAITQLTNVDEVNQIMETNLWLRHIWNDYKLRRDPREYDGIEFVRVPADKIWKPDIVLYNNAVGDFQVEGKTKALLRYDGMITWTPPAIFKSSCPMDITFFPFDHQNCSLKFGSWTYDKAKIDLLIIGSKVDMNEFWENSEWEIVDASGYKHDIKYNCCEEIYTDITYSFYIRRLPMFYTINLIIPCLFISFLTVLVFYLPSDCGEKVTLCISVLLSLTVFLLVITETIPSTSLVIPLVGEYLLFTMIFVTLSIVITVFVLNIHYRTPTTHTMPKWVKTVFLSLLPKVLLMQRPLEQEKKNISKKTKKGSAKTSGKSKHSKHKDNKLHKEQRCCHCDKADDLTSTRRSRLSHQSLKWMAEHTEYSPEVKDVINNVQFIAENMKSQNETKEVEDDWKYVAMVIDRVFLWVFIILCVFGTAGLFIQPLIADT
EXPERIMENTAL_ENDPOINT: Ki (µM)

>>> observed_result("COC1CC=C2CCN3CCC4=C(CC(=O)OC4)C23C1 (configuration not stated)")
2.8
>>> observed_result("COc1cc2c3cc1Oc1cc(ccc1O)CC1c4c(cc(OC)c(O)c4Oc4ccc(cc4)CC3N(C)CC2)CC[N+]1(C)C (configuration not stated)")
7.7
>>> observed_result("CC(C)C[C@@H]1NC(=O)[C@H](CC(N)=O)NC(=O)[C@H](CO)NC(=O)[C@H](Cc2cnc[nH]2)NC(=O)[C@H](CCC(=O)O)NC(=O)[C@H](CC(C)C)NC(=O)[C@H](Cc2cnc[nH]2)NC(=O)[C@@H]2CSSC[C@H](NC(=O)CN)C(=O)N[C@@H](CSSC[C@@H](C(N)=O)NC1=O)C(=O)N[C@@H](CO)C(=O)N[C@@H](CC(N)=O)C(=O)N1CCC[C@H]1C(=O)N[C@@H](C(C)C)C(=O)N2")
0.066
>>> observed_result("CC[N+](CC)(CC)CCOc1ccc(C=Cc2ccccc2)cc1")
4.52
>>> observed_result("CN1CCC[C@H]1c1cccnc1 [(R,S)-nicotine]")
0.02
